target or test system: Sentrin-specific protease 8 (Homo sapiens) (UniProt Q96LD8)
Sequence (Q96LD8 whole entry, looked up): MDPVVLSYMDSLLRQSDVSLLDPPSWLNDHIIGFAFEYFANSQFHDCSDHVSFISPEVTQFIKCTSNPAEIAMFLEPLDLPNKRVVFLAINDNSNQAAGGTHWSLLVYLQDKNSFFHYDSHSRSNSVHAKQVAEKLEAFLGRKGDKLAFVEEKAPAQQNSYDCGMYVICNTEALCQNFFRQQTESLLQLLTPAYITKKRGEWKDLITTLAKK
assay method text: blockers of SENP8 deneddylase activity – biochemical, fluorescence, Nedd8 protein substrate, uHTS, primary screen (AID 602440)
condition notes: recombinant SENP8, Nedd8 substrate fluorescence; at 20 µM
Hit rate of the full screen: of about 360,000 compounds, about 2,300 (0.64%) were called active. No stated cut-off is given here; in the data, active means inhibition mostly above about 40% (no sharp cut-off); inactive means mostly below about 27%. The list comes from a sample in which actives are over-represented; it also holds close analogues and randomly drawn compounds.
Please state which outcome applies, choosing from class 1 (active), class 0 (inactive)

Cc1ccc(CNC(=O)C2(C(F)(F)F)C/C(=C\Cc3ccccc3)CCCO2)o1 (stereo not given) ... class 0

Lab note: next compound to report on.
Could you kindly confirm the outcome this assay logged for `CCCCOc1ccc(C(=O)NCC(=O)OCC(=O)N2CCN(S(=O)(=O)c3ccc(C)cc3C)CC2)cc1` ?
class 0

====

target or test system: Sentrin-specific protease 8 (Homo sapiens)
assay method text: blockers of SENP8 deneddylase activity – biochemical, fluorescence, Nedd8 protein substrate, uHTS, primary screen (AID 602440)
condition notes: recombinant SENP8, Nedd8 substrate fluorescence; at 20 µM
Among all 360,000 compounds or so, about 2,300 (0.64%) were called active. Cut-off read from the data, not from the text of the source: active = inhibition mostly above about 40% (no sharp cut-off); inactive = mostly below about 27%. For the sample, actives were picked, then their nearest neighbours and some compounds at random.
Hi there, use one of these labels in your reply, thanks! yes (1) (active), no (0) (inactive)

O=C(/C=C/c1cccs1)NCc1cccnc1 ... no (0)

Here is the next item to consider.
Kindly provide the recorded test outcome for the following compound: `CC1CCN(c2ccc3c(c2)S(=O)(=O)c2cc(C(=O)O)ccc2C3=O)CC1`
no (0)

====

target or test system: Sentrin-specific protease 8 (Homo sapiens) (UniProt Q96LD8)
assay method text: blockers of SENP8 deneddylase activity – biochemical, fluorescence, Nedd8 protein substrate, uHTS, primary screen (AID 602440)
condition notes: recombinant SENP8, Nedd8 substrate fluorescence; at 20 µM; active compounds read high
Out of some 360,000 compounds screened, about 2,300 (0.64%) were called active. The entries come from a sample that favours actives as a whole.
Kindly state inhibition for each of the entries shown.
One number for each entry, in %.

Below: 10 molecules and their reported inhibition.
CCCCC1=CC2=CC(=O)C(C)(OC(=O)CC)C(=O)C2=CN1CCCOC(C)C (configuration not stated) ... -190
O=C1CC(c2ccccc2)=NN1c1ccc([N+](=O)[O-])cc1 ... 71.2
CC(C)(C)CN1CCNC(=O)C1CC(=O)NC1Cc2ccccc2C1 (configuration not stated) ... -47.4
COc1ccc(C(=O)C(C)OC(=O)c2cccc(S(=O)(=O)Nc3c(C)n(C)n(-c4ccccc4)c3=O)c2)cc1 (configuration not stated) ... 5.8
CNC(=O)C[C@H]1C(=O)N(Cc2ccccc2)C[C@@H]1CSC ... -6.3
COc1cc(/C=C/CO)cc(OC)c1O[C@@H]1O[C@H](CO)[C@@H](O)[C@H](O)[C@H]1O ... -20.9
CN(C)S(=O)(=O)c1cccc(-c2nn(-c3ccccc3)cc2/C=C2\SC(=S)N(CC(=O)O)C2=O)c1 ... 44
CCOCCCn1c(NN)nc2ccccc2c1=O ... 34
C/C(=N/NC(=O)c1ccc(Br)o1)c1ccc(C)o1 ... -3.6
CCOC(=O)C(C)n1cnc2c(nnn2-c2ccc(F)cc2)c1=O (configuration not stated) ... 6.3

Dear colleague, could you please provide inhibition for the molecules listed below?
1. C/C(=N\NC(=O)c1ccc(C)cc1)C1C(=O)c2ccccc2C1=O
2. COc1ccc(-c2[nH]ncc2CN(C)Cc2cc(C)[nH]n2)c(F)c1

38.5
8.6
